Molecular target: human CTSB (Homo sapiens, UniProt P07858)
Experiment: Enzyme kinetics of recombinant human CTSB in the presence of BEA
Conditions: uncompetitive; approximated from closest neighbor intersection point of [S]/v vs. [I] plot; Z-Leu-Arg AMC substrate, BEA 0-25 μM, 25 mM MES pH 5, 26°C; read-out: K i (estimated)
pKi: −log10 of the molar value.
quantity: pKi

Can you look up the measured pKi of CC(C)[C@H]1OC(=O)[C@H](Cc2ccccc2)N(C)C(=O)[C@@H](C(C)C)OC(=O)[C@H](Cc2ccccc2)N(C)C(=O)[C@@H](C(C)C)OC(=O)[C@H](Cc2ccccc2)N(C)C1=O for me?
~4.35
